biological target: ABL1(T315I)-nonphosphorylated (Homo sapiens, UniProt P00519, T315I); construct: purchased Eurofins DiscoverX KINOMEscan (scanTK); test: KINOMEscan ScanTK; format: binding; conditions: @1000nM, read-out: %Control
measurement-name: remaining binding at 1 µM (%)
Kindly answer with a numeric value in %, unit omitted.

Challenge: Look up remaining binding at 1 µM for this compound: CCOC(=O)c1cnc(S(C)(=O)=O)nc1N1CCC[C@@H](n2nc(-c3ccc(Oc4ccccc4)cc3)c3c(N)ncnc32)C1
Response given: 84

Challenge: Look up remaining binding at 1 µM for this compound: COC(=O)c1cnc(S(C)(=O)=O)nc1N1CCCC(n2nc(-c3ccc(Oc4ccccc4)cc3)c3c(N)ncnc32)C1 (centres unmarked)
Response given: 76
